Hello, the source for this data is ChEMBL document CHEMBL1136971, in case you need it.

Target: Mu-type opioid receptor (Cavia porcellus)
Sequence (P97266 whole entry): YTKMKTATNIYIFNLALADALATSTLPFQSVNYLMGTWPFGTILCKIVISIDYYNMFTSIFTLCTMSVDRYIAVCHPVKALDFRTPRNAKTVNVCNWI
Test: Binding affinity to mu opioid receptor in guinea pig brain membrane
Square brackets hold non-standard residues; d marks the D form. Peptide text beside a SMILES is read from it.
readout name: IC50

Incoming: Can you share its IC50? I mean this compound: O=C1N[C@@H](Cc2ccccc2)C(=O)N2CCC[C@@H]2C(=O)N[C@@H](Cc2ccccc2)C(=O)N[C@H]1Cc1c[nH]c2ccccc12 (cyclo(FWF[dP]))
Outgoing: 260 nM
